// provenance: ChEMBL document CHEMBL4196183

target: Urotensin-2 receptor (Homo sapiens, UniProt Q9UKP6); assay: Displacement of [Na125I]-synthetic URP from human UT receptor expressed in HEK293 cell membranes incubated for 2 hrs by gamma-counting
Sequence (Q9UKP6 whole entry): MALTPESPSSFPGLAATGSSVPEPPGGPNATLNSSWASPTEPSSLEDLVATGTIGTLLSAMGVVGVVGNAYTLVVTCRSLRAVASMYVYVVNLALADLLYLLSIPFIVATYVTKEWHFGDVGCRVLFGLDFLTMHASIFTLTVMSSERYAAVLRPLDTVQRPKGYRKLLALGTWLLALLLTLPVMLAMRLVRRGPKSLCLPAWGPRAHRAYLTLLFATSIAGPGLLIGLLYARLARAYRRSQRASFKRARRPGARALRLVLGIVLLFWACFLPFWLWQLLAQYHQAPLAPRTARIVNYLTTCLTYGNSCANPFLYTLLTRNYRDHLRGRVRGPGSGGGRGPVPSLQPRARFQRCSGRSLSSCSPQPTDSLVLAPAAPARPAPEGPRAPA
Listed here: items and their measured pIC50.
The value called pIC50 is obtained by taking minus log10 of the concentration in mol/L.

[[record]]
smiles_code = "CC(C)[C@H](NC(=O)[C@@H]1CSSC[C@H](NC(=O)[C@H](C)N)C(=O)N[C@@H](Cc2ccc(-c3ccccc3)cc2)C(=O)N[C@@H](Cc2c[nH]c3ccccc23)C(=O)N[C@@H](CCCCN)C(=O)N[C@@H](Cc2ccc(O)cc2)C(=O)N1)C(=O)O"
system_under_test = "Urotensin-2 receptor (Homo sapiens, UniProt Q9UKP6)"
measured_property = "pIC50"
reported_result = 8.27

[[record]]
smiles_code = "CC(C)[C@H](NC(=O)[C@@H]1CSSC[C@H](NC(=O)[C@H](C)N)C(=O)N[C@@H](Cc2ccccc2)C(=O)N[C@@H](Cc2c[nH]c3ccccc23)C(=O)N[C@@H](CCCCN)C(=O)N[C@@H](Cc2ccc(O)cc2)C(=O)N1)C(=O)O"
system_under_test = "Urotensin-2 receptor (Homo sapiens, UniProt Q9UKP6)"
measured_property = "pIC50"
reported_result = 7.71

[[record]]
smiles_code = "CC(C)[C@H](NC(=O)[C@@H]1CSSC[C@H](NC(=O)[C@H](C)N)C(=O)N[C@@H](Cc2ccc(C#Cc3ccccc3)cc2)C(=O)N[C@@H](Cc2c[nH]c3ccccc23)C(=O)N[C@@H](CCCCN)C(=O)N[C@@H](Cc2ccc(O)cc2)C(=O)N1)C(=O)O"
system_under_test = "Urotensin-2 receptor (Homo sapiens, UniProt Q9UKP6)"
measured_property = "pIC50"
reported_result = 7.57

[[record]]
smiles_code = "CC(C)[C@H](NC(=O)[C@@H]1CSSC[C@H](NC(=O)[C@@H](N)CC(=O)O)C(=O)N[C@@H](Cc2ccc(I)cc2)C(=O)N[C@@H](Cc2c[nH]c3ccccc23)C(=O)N[C@@H](CCCCN)C(=O)N[C@@H](Cc2ccc(O)cc2)C(=O)N1)C(=O)O"
system_under_test = "Urotensin-2 receptor (Homo sapiens, UniProt Q9UKP6)"
measured_property = "pIC50"
reported_result = 8.40


// next item, pIC50 requested
Enquiry: Answer with reported pIC50 of `CC(C)[C@H](NC(=O)[C@@H]1CSSC[C@H](NC(=O)[C@H](C)N)C(=O)N[C@@H](Cc2ccc(I)cc2)C(=O)N[C@@H](Cc2c[nH]c3ccccc23)C(=O)N[C@@H](CCCCN)C(=O)N[C@@H](Cc2ccc(O)cc2)C(=O)N1)C(=O)O`
Return: 8.25
